Measured values drawn from ChEMBL document CHEMBL1122621 for this set.

Experimental details: Ratio of the kinetic parameter Kcat to the Km on substrate dopamine monoamine oxidase
Assay metric: Ratio (M⁻¹ s⁻¹)

>>> print(df.to_string())
   structure_as_smiles  endpoint_value
0         NCCCc1ccccc1             580
1          NCCc1ccccc1             100
2      NCCSc1ccc(O)cc1            4500
3         NCCSc1ccccc1            7300

====

Experimental details: Ratio of the kinetic parameter Kcat to the Km on substrate […] from bovine adrenals
Assay type: tissue-based
Assay conditions: Adrenal gland
Assay metric: Ratio (M⁻¹ s⁻¹)

In [3]: df
Out[3]:
                       molecule  unit_abbreviation  endpoint_value
0               NCCSc1ccc(O)cc1            M⁻¹ s⁻¹            8300
1                  NCCSc1ccccc1            M⁻¹ s⁻¹            2300
2                NCCc1ccc(O)cc1            M⁻¹ s⁻¹           42000
3     CC(N)CSc1ccccc1 (racemic)            M⁻¹ s⁻¹            1000
4  CC(N)CSc1ccc(O)cc1 (racemic)            M⁻¹ s⁻¹            6700
5                   NCCc1ccccc1            M⁻¹ s⁻¹            9300
6                  NCCCc1ccccc1            M⁻¹ s⁻¹             590

====

Experimental target: monoamine oxidase (MAO) (Bos taurus, UniProt P21398+P56560)
Experimental details: Compound was evaluated as substrate for monoamine oxidase (MAO) from bovine […] and the enzymatic kinetic constant was reported as Km
Assay type: protein assay
Assay conditions: cattle
Assay metric: Km (µM)

>>> df
   structure_as_smiles                       experimental_target  assay_metric  endpoint_value
0      NCCSc1ccc(O)cc1  monoamine oxidase (MAO) (Bos taurus, UniProt P21398+P56560)            Km              49
1         NCCCc1ccccc1  monoamine oxidase (MAO) (Bos taurus, UniProt P21398+P56560)            Km             290
2         NCCSc1ccccc1  monoamine oxidase (MAO) (Bos taurus, UniProt P21398+P56560)            Km              55
3          NCCc1ccccc1  monoamine oxidase (MAO) (Bos taurus, UniProt P21398+P56560)            Km            2200

====

Experimental target: Dopamine beta-hydroxylase (Bos taurus) (UniProt P15101)
Sequence (whole entry): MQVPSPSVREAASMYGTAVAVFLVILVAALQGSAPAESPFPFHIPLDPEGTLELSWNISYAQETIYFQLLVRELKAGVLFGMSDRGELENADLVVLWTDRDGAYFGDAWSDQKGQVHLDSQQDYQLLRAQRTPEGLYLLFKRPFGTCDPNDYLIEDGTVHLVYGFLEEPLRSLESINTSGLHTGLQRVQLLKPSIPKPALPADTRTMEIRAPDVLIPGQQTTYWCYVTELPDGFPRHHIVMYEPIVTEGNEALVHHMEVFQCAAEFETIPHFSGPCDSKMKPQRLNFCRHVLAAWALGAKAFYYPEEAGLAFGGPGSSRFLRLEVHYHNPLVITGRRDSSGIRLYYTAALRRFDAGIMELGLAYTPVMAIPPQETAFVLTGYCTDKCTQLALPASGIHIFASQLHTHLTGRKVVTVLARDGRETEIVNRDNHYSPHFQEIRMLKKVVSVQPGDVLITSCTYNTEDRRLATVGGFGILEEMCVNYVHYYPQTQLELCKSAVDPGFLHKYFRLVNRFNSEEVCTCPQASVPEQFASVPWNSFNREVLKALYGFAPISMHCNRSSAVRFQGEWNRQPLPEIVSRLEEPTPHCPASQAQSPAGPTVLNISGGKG
Experimental details: Compound was evaluated as substrate for Dopamine beta hydroxylase (DBH) from bovine adrenals and the enzymatic kinetic constant was reported as Kcat
Assay metric: k cat (s⁻¹)

                       molecule  endpoint_value
0               NCCSc1ccc(O)cc1              36
1  CC(N)CSc1ccc(O)cc1 (racemic)              44
2                  NCCCc1ccccc1              12
3                NCCc1ccc(O)cc1              85
4                  NCCSc1ccccc1              39
5     CC(N)CSc1ccccc1 (racemic)              20
6                   NCCc1ccccc1              65

====

Experimental target: Monoamine oxidase (Bos taurus, UniProt P56560+P21398)
Experimental details: Compound was evaluated as substrate for monoamine oxidase (MAO) from bovine […] and the enzymatic kinetic constant was reported as Kcat
Assay type: protein assay
Assay conditions: cattle
# Lookup of reported k cat keyed by entry
Assay metric: k cat (s⁻¹)

   structure_as_smiles  assay_metric  unit_abbreviation  endpoint_value
0         NCCSc1ccccc1         k cat                s⁻¹            0.43
1          NCCc1ccccc1         k cat                s⁻¹            0.23
2         NCCCc1ccccc1         k cat                s⁻¹            0.17
3      NCCSc1ccc(O)cc1         k cat                s⁻¹            0.22
